For each of the compounds below, state its growth.
# System: SR leukemia
# experimentSummary: NCI-60 one-dose screen, 48 h (100 = growth as untreated, 0 = no growth, -100 = all killed)
# experimentalParameters: 10 µM unless noted
# Experimental: Growth inhibition of the SR human tumor cell line is measured as a screen for anti-cancer activity. Cells are grown in 96 well plates and exposed to the test compound for 48 hours. Compounds are tested at a single concentration, which is 10^-5 M for most compounds. The reported endpoint is percent growth (GI% or GIPRCNT), where numbers from 0 - 100% represent growth inhibition, and numbers from -100% - 0 represent cell death. For example, a value of 40 represents 60% growth inhibition. […]
This is part of a sample that, as a whole, favours compounds with a hit. Of some 83,000 tested, about 20% had one in any assay.
One number for each entry, in %.

# compound, readoutUnit, reportedMeasurement
rows = [
    ("Nc1c(C(=O)c2ccc(Cl)cc2)sc(Nc2ccccc2)c1-c1nc2ccccc2s1", "%", 33.2),
    ("C=CCNc1nc(O)c(/C=C2\\C=Nc3ncccc32)s1", "%", -9.51),
    ("COc1cccc(-c2nn(-c3ccccc3)cc2-c2ccnc(-c3cccnc3)c2)c1", "%", 74.9),
    ("Nc1nc(N)c2c(n1)NC(c1ccc3c(c1)OCO3)CC(c1cccc(Nc3ccncc3)c1)=N2 (stereo not given)", "%", 53.1),
    ("Cc1[nH]c(C2CC(c3ccc(C(F)(F)F)c(F)c3)=NN2C)c(C)c1C(=O)NCC(F)(F)F (stereo not given)", "%", 92.9),
    ("COC1CC(O)C2=C(CC3C(/C(C)=C\\CC=C(C)C)CCC3(C)O2)C1=O (stereo not given)", "%", 86.4),
    ("O=C(O)COc1ccc(F)cc1", "%", 103),
    ("CC(C)n1cc(C2=C(c3cccc4ccccc34)C(=O)NC2=O)c2cc(Br)ccc21", "%", 25.8),
]

Batch lookup, growth per entry.
1. Cc1ccc(C23CCC(=O)N2CCc2cncn23)cc1 (stereo not given)
2. O=C(Nc1ncc(Cc2cc(C(F)(F)F)ccc2Cl)s1)C(=S)N1CCOCC1

Return:
126
92.1

---

# Test system: HT29 colon
# experimentSummary: NCI-60 one-dose screen, 48 h (100 = growth as untreated, 0 = no growth, -100 = all killed)
# experimentalParameters: 10 µM unless noted
About 83,000 compounds went through this panel and 20% of them were active in at least one assay; those are over-represented in the sample as a whole.
Tag: T if measured growth is not below 90%, F if it is.

Illustrative cases are given below, each with its answer.
# molecule, assignedClass
measured = [
    ("CCOC(=O)c1c(N)sc2cc(O)ccc12", "T"),
    ("CCCCCCC/C=N/NC(=O)c1ccc(-n2cc(-c3ccccc3)nn2)cc1", "T"),
    ("COC(CCP(=O)(c1ccccc1)c1ccccc1)(C(=O)c1ccccc1)c1ccccc1 (centres undefined)", "F"),
    ("C#C[C@]1(O)CC[C@H]2[C@@H]3CC=C4c5sc(-c6ccccc6)nc5CC[C@]4(C)[C@H]3CC[C@@]21C", "F"),
    ("O=C1CCc2c(sc3[nH]c(=S)n(-c4cc(C(F)(F)F)cc(C(F)(F)F)c4)c(=O)c23)C1", "F"),
    ("O=C(c1ccccc1)[C@@H](c1ccccc1)[C@]1(O)C(=O)Nc2ccccc21", "T"),
    ("Oc1ccc(Cc2ccc(O)c3ncccc23)c2cccnc12", "F"),
]

Let us examine a further case.
Enquiry: Has `COc1ccc(/C=C/C(=O)c2ccc(-n3cc(CN4CCN(c5cc6c(cc5F)c(=O)c(C(=O)O)cn6C5CC5)CC4)nn3)cc2)cc1` a recorded growth greater than or equal to 90%?
Return: F

---

# Tested on: NCI-H322M lung
# experimentSummary: NCI-60 one-dose screen, 48 h
# experimentalParameters: 10 µM unless noted
About 83,000 compounds went through this panel and 20% of them were active in at least one assay; those are over-represented in the sample as a whole. The source made the active and inactive calls. The calls were made as follows: active = growth percent below 10; inactive = the rest.
Please answer using one outcome listed in active, inactive

# molecule, assignedClass
records = [
    ("Cc1c(C)c2c(c(C)c1OC(=O)CCC(=O)[O-])CCC(C)(CCCCCCCCCCC[P+](c1ccccc1)(c1ccccc1)c1ccccc1)O2 (stereo not given)", "active"),
    ("COc1cc2cc(Oc3ccc(NC(=O)Nc4ccc(F)c(C(F)(F)F)c4)cc3)c(C)nc2cc1OCCN1CCCCC1", "inactive"),
]

Enquiry: Tell me the recorded outcome of this test for `O=C(/C=C/c1ccc(Cl)cc1)c1ccc(Nc2ccnc3cc(Cl)ccc23)cc1` .
Return: inactive

Enquiry: Hi, sorry to bother you, what did the test record for `C#C[C@]1(O)CC[C@H]2[C@@H]3CC=C4c5sc(-c6ccccc6)nc5CC[C@]4(C)[C@H]3CC[C@@]21C` ?
Return: inactive

Enquiry: What outcome does the record of this test show for `C#Cc1cccc(Nc2nc(Cl)nc3cc(NC(=O)CCl)ccc23)c1` ?
Return: active

---

# System: OVCAR-4 ovarian
# experimentSummary: NCI-60 one-dose screen, 48 h (100 = growth as untreated, 0 = no growth, -100 = all killed)
# experimentalParameters: 10 µM unless noted
The panel holds about 83,000 compounds, 20% with a hit somewhere; the sample as a whole holds those more often.
measuredProperty: growth (%)
One number for each entry, in %.

# molecule, growth, %
measured = [
    ("O=C(NS(=O)(=O)c1ccccc1)n1cc(-c2ccncc2)c(-c2cc(O)cc(Cl)c2)n1", 92.2),
    ("CN1CCN(Cc2ccc(NC(=O)c3cncc(C#Cc4cnc(N)c5ncccc45)c3)cc2Cl)CC1", 104),
    ("O=c1c(/C=C/c2c(O)ccc3ccccc23)nnc2sc(-c3cccc([N+](=O)[O-])c3)nn12", 25.5),
]

Below are some molecules; for each one, tell me its growth.
1. Nc1nc(=O)n([C@H]2CC=C(CO)O2)cc1F
2. Cc1c(CC(=O)Nc2ccccc2)nnn1-c1ccccc1
3. Nc1ccc(Cl)c2c(=O)c3ccccc3[nH]c12

Return:
1. 107
2. 115
3. 53.8

Dear colleague, could you send me growth for each of the items below? Thanks.
1. Cc1cc2c(c(C)n1)CN(C(=O)Nc1nc(-c3cncs3)ccc1N)C2
2. CCN(CC)CCN1C(=O)c2c(c(C)c3c(oc4cc(OC)ccc43)c2C)C1=O
3. COc1cc(/C=C/C(=O)c2ccc(-n3cc(CN4CCN(c5cc6c(cc5F)c(=O)c(C(=O)O)cn6C5CC5)CC4)nn3)cc2)cc(OC)c1OC
4. O=C(OCC(O)(CO)C(=O)NC12CC3CC(CC(C3)C1)C2)c1ccc(Cl)cc1 (stereo not drawn)
5. CC1=C([Se]CC(OC(=O)[C@@H](CO)NC(=O)OC(C)(C)C)C(=O)NCCCCCC(=O)OCc2ccccc2)C(=O)c2ccccc2C1=O (stereo partly drawn)

Return:
[96.7, 73.8, 96.7, 107, -98.1]

Please state growth for every molecule in the list that follows.
1. COc1cc(/C=N/NC(=O)c2ccc3nc(-c4ccc(Cl)cc4)[nH]c3c2)cc(OC)c1OC
2. Cc1[nH]c(C(=O)Nc2ccccc2OC2CCNC2)c(Cl)c1Cl (stereo not drawn)
3. Cc1nn(C)c2ncnc(Nc3ccccc3Br)c12

Return:
1: 102; 2: 79.1; 3: 109

# per-item lookup of growth; items listed below
1. COC(CCP(=O)(c1ccccc1)c1ccccc1)(C(=O)c1ccccc1)c1ccccc1 (stereo not drawn)
2. COc1ccc(C2CC(=O)Oc3c(OC)c4c(c(OC)c32)OCO4)cc1 (stereo not drawn)
3. N#C/C(Sc1nc2sc3c(c2c(=O)n1Cc1ccccc1)CCCC3)=C1/SC=C(c2ccc(Cl)cc2)N1c1ccccc1

Return:
1. 61.3
2. 106
3. 93.5

---

# System: A549/ATCC NSCLC
# experimentSummary: NCI-60 one-dose screen, 48 h (100 = growth as untreated, 0 = no growth, -100 = all killed)
# experimentalParameters: 10 µM unless noted
Compounds without any hit were thinned out: in the full panel of roughly 83,000, 20% have a hit.
I'd appreciate it if you could supply growth values for the items below.
Give bare numbers, in %.

These recorded examples may help you get a feel for the data.
# molecule, reportedMeasurement
measured = [
    ("O=[N+]([O-])c1ccc(N/N=C\\c2cc(Cl)ccc2O)nc1", 50.4),
    ("O=c1n(C2OC(CO)C(O)C2O)ccc2nccn12 (stereo unspecified)", 96),
    ("Cc1ccc2nc(/C=C/c3ccc(N(C)C)cc3)cc(C)c2c1", 52.3),
    ("CC(C)CCc1nc2ccc(NCc3ccc(OCCN4CCC(C)CC4)cc3)cc2[nH]1", 99.9),
    ("c1ccc2[nH]c(-c3ccc(-c4nccc5c4[nH]c4ccccc45)cc3)nc2c1", 45.7),
]

Proceeding to the next molecule to report its growth.
The molecule listed as `Cc1ccc2c(n1)C[C@H](C(C)(C)O)CC[C@H]2C` has a reported growth of 94.4
